# experimental_system: T2R38 (Homo sapiens, UniProt P59533, A49P/I296V)
# Construct: leader: first 45 amino acids of rat somatostatin receptor subtype 3 (SSTR3) (N); expressed in transfected cells; host or cells: Peakrapid cells (HEK293 derivative, ATCC CRL-2828) stably expressing Galpha16gustducin44, co-transfected with human RTP4
# test_summary: Single cell calcium imaging, Peakrapid cells (Gα16gustducin44) transiently transfected with T2R38
# Assay type: cell-based
# assay_conditions: logEC50, printed in the picture of the concentration-response curve
measured_attribute: EC50 (mM)

[[record]]
smiles_text = "O=C1CCCO1"
readout_number = 12


###

# experimental_system: T2R38 (Homo sapiens, UniProt P59533, A49P/I296V)
# Construct: leader: first 45 amino acids of rat somatostatin receptor subtype 3 (SSTR3) (N); expressed in transfected cells; host or cells: Peakrapid cells (HEK293 derivative, ATCC CRL-2828) stably expressing Galpha16gustducin44, co-transfected with human RTP4
# Sequence (P59533 1-333 A49P/I296V): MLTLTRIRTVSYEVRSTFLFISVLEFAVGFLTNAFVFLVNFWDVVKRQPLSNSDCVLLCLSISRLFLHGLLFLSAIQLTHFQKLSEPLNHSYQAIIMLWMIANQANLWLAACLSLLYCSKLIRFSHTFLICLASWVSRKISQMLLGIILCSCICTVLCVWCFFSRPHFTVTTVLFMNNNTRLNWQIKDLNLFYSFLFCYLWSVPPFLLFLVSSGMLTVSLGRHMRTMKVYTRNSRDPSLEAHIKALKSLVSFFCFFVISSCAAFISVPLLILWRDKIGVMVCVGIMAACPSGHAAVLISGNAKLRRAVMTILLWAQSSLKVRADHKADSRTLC
# test_summary: Single cell calcium imaging, Peakrapid cells (Gα16gustducin44) transiently transfected with T2R38
# Assay type: cell-based
Positions of bridges follow the written chain, without caps; N, C: chain ends. Residues, ends and D or L forms follow the SMILES beside them.
measured_attribute: agonist activity on T2R38 (in words)

[[record]]
molecule = "CC[C@H](C)[C@@H]1NC(=O)[C@H](Cc2ccccc2)NC(=O)[C@H](CC(=O)O)NC(=O)[C@@H](NC(=O)[C@@H](NC(=O)[C@H](CO)NC(=O)[C@@H](N)Cc2ccc(O)cc2)[C@@H](C)O)CSC(=O)[C@H](CCSC)NC1=O [Agr D1 thiolactone] (H-YSTCDFIM; thioester 4-C; N-terminus assumed)"
experimental_system = "T2R38 (Homo sapiens, UniProt P59533, A49P/I296V)"
measured_attribute = "agonist activity on T2R38 (in words)"
result = "inactive"

[[record]]
molecule = "CC[C@H](C)[C@H](NC(=O)[C@H](Cc1ccccc1)NC(=O)[C@H](CC(=O)O)NC(=O)[C@H](CCCNC(=N)N)NC(=O)[C@H](Cc1ccccc1)NC(=O)[C@H](Cc1ccccc1)NC(=O)[C@H](CCCCN)NC(=O)[C@H](CO)NC(=O)[C@H](CC(C)C)NC(=O)[C@H](CCCNC(=N)N)NC(=O)[C@H](CCSC)NC(=O)[C@@H](N)CCC(=O)O)C(=O)N[C@@H](CC(C)C)C(=O)N[C@@H](CCC(N)=O)C(=O)N[C@@H](CCCNC(=N)N)C(=O)N[C@@H](CCCCN)C(=O)N[C@@H](CCCCN)C(=O)O"
experimental_system = "T2R38 (Homo sapiens, UniProt P59533, A49P/I296V)"
measured_attribute = "agonist activity on T2R38 (in words)"
result = "inactive"


###

Measured Emax (% of positive control) by item
# experimental_system: T2R38 (Homo sapiens, UniProt P59533, A49P/I296V)
# Construct: leader: first 45 amino acids of rat somatostatin receptor subtype 3 (SSTR3) (N); expressed in transfected cells; host or cells: Peakrapid cells (HEK293 derivative, ATCC CRL-2828) stably expressing Galpha16gustducin44, co-transfected with human RTP4
# Sequence (P59533 1-333 A49P/I296V): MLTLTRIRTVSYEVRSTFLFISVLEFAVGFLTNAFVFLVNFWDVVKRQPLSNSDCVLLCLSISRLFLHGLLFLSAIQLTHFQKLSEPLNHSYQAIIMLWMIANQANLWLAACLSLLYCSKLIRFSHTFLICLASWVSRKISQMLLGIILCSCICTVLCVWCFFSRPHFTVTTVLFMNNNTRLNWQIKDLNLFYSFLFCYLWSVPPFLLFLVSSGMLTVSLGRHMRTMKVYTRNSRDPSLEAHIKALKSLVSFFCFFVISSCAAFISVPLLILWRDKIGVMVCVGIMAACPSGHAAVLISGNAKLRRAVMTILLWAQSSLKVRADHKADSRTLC
# test_summary: Single cell calcium imaging, Peakrapid cells (Gα16gustducin44) transiently transfected with T2R38
# Type: cell-based
# assay_conditions: percentage of the response elicited by 0.1 mM PTC
measured_attribute: Emax (% of positive control)

[[record]]
molecule = "C[S+](C)[O-] [DMSO, dimethylsulfoxide]"
measured_attribute = "Emax (% of positive control)"
result = "88 % of positive control"

[[record]]
molecule = "CS"
measured_attribute = "Emax (% of positive control)"
result = "31 % of positive control"

[[record]]
molecule = "CC(C)=O"
measured_attribute = "Emax (% of positive control)"
result = "67 % of positive control"

[[record]]
molecule = "CSSC [dimethyldisulfide, dimethyl disulfide]"
measured_attribute = "Emax (% of positive control)"
result = "46 % of positive control"

[[record]]
molecule = "CC(C)C=O"
measured_attribute = "Emax (% of positive control)"
result = "163 % of positive control"

[[record]]
molecule = "CCC(C)=O"
measured_attribute = "Emax (% of positive control)"
result = "48 % of positive control"


###

# experimental_system: T2R38 (Homo sapiens, UniProt P59533, A49P/I296V)
# Construct: leader: first 45 amino acids of rat somatostatin receptor subtype 3 (SSTR3) (N); expressed in transfected cells; host or cells: Peakrapid cells (HEK293 derivative, ATCC CRL-2828) stably expressing Galpha16gustducin44, co-transfected with human RTP4
# test_summary: Single cell calcium imaging, Peakrapid cells (Gα16gustducin44) transiently transfected with T2R38
# Type: cell-based
# assay_conditions: given in the concentration-response curve
measured_attribute: logEC50

[[record]]
molecule = "CCC(C)=O [2-butanone]"
measured_attribute = "logEC50"
result = -1.94

[[record]]
molecule = "CC(C)=O [acetone]"
measured_attribute = "logEC50"
result = -1.22

[[record]]
molecule = "CSSC [dimethyldisulfide, dimethyl disulfide]"
measured_attribute = "logEC50"
result = -2.54

[[record]]
molecule = "CC(C)C=O [2-methylpropanal]"
measured_attribute = "logEC50"
result = -1.97

[[record]]
molecule = "CS [methylmercaptan]"
measured_attribute = "logEC50"
result = -2.07


###

# experimental_system: T2R38 (Homo sapiens, UniProt P59533, A49P/I296V)
# Construct: leader: first 45 amino acids of rat somatostatin receptor subtype 3 (SSTR3) (N); expressed in transfected cells; host or cells: Peakrapid cells (HEK293 derivative, ATCC CRL-2828) stably expressing Galpha16gustducin44, co-transfected with human RTP4
# test_summary: Single cell calcium imaging, Peakrapid cells (Gα16gustducin44) transiently transfected with T2R38
# Type: cell-based
# assay_conditions: concentration-response curve; read-out: EC50
measured_attribute: EC50 (mM)

[[record]]
compound = "CC(C)=O"
experimental_system = "T2R38 (Homo sapiens, UniProt P59533, A49P/I296V)"
measured_attribute = "EC50"
readout_number = 60

[[record]]
compound = "CCC(C)=O"
experimental_system = "T2R38 (Homo sapiens, UniProt P59533, A49P/I296V)"
measured_attribute = "EC50"
readout_number = 11

[[record]]
compound = "CCCC(C)=O"
experimental_system = "T2R38 (Homo sapiens, UniProt P59533, A49P/I296V)"
measured_attribute = "EC50"
readout_number = 4

[[record]]
compound = "CS"
experimental_system = "T2R38 (Homo sapiens, UniProt P59533, A49P/I296V)"
measured_attribute = "EC50"
readout_number = 8

[[record]]
compound = "CSSC [dimethyldisulfide, dimethyl disulfide]"
experimental_system = "T2R38 (Homo sapiens, UniProt P59533, A49P/I296V)"
measured_attribute = "EC50"
readout_number = 3

[[record]]
compound = "CC(C)C=O"
experimental_system = "T2R38 (Homo sapiens, UniProt P59533, A49P/I296V)"
measured_attribute = "EC50"
readout_number = 11


###

# experimental_system: T2R38 (Homo sapiens, UniProt P59533, A49P/I296V)
# Construct: leader: first 45 amino acids of rat somatostatin receptor subtype 3 (SSTR3) (N); expressed in transfected cells; host or cells: Peakrapid cells (HEK293 derivative, ATCC CRL-2828) stably expressing Galpha16gustducin44, co-transfected with human RTP4
# test_summary: Single cell calcium imaging, Peakrapid cells (Gα16gustducin44) transiently transfected with T2R38
# Format: cell-based
# assay_conditions: EC50, concentration-response curve
# Method: The coding sequences of either the functional (PAV, GenBank accession number AY258597.1) and non-functional (AVI, GenBank accession number AF494231.1) were amplified from human genomic DNA by polymerase chain reaction. […] The Peakrapid cell line expressing stably a chimeric Gα16gustducin44 G protein [21] was used. […] Measurement were performed on a platform based on a motorized Axiobserver Z1 fluorescence microscope piloted by a Axiovision software (Zeiss, Jena, Germany) as described previously. […]
pEC50: −log10 of the molar value.
measured_attribute: pEC50

[[record]]
smiles_text = "O=C1CCCO1"
readout_number = 1.92

